# Assay Overview: Cytotoxicity against human 786O cells assessed as cell viability measured after 48 hrs by CCK-8 assay
# Format: toxicity, cell-based, 786-0
Parameter: CC50 at 48 h (µM)
Answers are plain numbers, in µM.

Sample records with CC50 at 48 h:
O=C1c2c(O)c(=O)ccn2N([C@@H](c2ccc(F)c(F)c2)c2cccs2)[C@@H]2COCCN12 | 13.8
COC(=O)OCOc1c2n(ccc1=O)N([C@@H](c1ccc(F)c(F)c1)c1cccs1)[C@@H]1COCCN1C2=O | 29.9

Lab note: next compound to report on.
Which CC50 at 48 h is listed for O=C1c2c(O)c(=O)ccn2N([C@@H]2c3ccccc3SCc3c2ccc(F)c3F)[C@@H]2COCCN12 ? 2.86

###

# Assay Overview: Selectivity index, ratio of CC50 for dog MDCK cells to EC50 for antiviral activity against influenza strain A/WSN/1933 (H1N1) infected in MDCK cells
# Format: toxicity, cell-based
# Condition Info: read-out: Selectivity Index
Provide the reported selectivity ratio of each item.
Answers are plain numbers.

O=C1c2c(O)c(=O)ccn2N([C@@H](c2ccc(Cl)c(Cl)c2)c2cccs2)[C@@H]2COCCN12 | 729

Lab note: next compound to report on.
Which selectivity ratio is listed for O=C1c2c(O)c(=O)ccn2N([C@H](c2ccc(F)c(F)c2)c2ccc(-c3ccccc3)s2)[C@@H]2COCCN12 ? 2380

###

# Assay Overview: Cytotoxicity against human Hep3B cells assessed as cell viability measured after 48 hrs by CCK-8 assay
# Type: toxicity, cell-based, Hep 3B2
Provide the reported CC50 at 48 h of each item.
One number for each entry, in µM.

O=C1c2c(O)c(=O)ccn2N([C@@H](c2ccc(F)c(F)c2)c2cccs2)[C@@H]2COCCN12 | 46.3

Which CC50 at 48 h is listed for O=C1c2c(O)c(=O)ccn2N([C@@H]2c3ccccc3SCc3c2ccc(F)c3F)[C@@H]2COCCN12 ? 7.38

###

# Assay Overview: Half life in CD-1 mouse at 1 mg/kg, iv measured up to 24 hrs by LC-MS/MS analysis
# Type: ADME, organism-based
# Condition Info: in vivo
Parameter: half-life
Show the value, then the unit it is measured in.

Which half-life is listed for O=C1c2c(O)c(=O)ccn2N([C@@H](c2ccc(F)c(F)c2)c2cccs2)[C@@H]2COCCN12 ? 3.43 h

###

Provide the reported EC50 of each item.
# Tested on: Influenza A virus
# Assay Overview: Antiviral activity against influenza strain A/Aichi/ 2/1968 (H3N2) infected in MDCK cells assessed as reduction of virus-induced cytopathic effect measured after 2 days incubation
# Assay type: functional, organism-based
# Condition Info: 48 h
Give bare numbers, in µM.

Sample records with EC50:
O=C1c2c(O)c(=O)ccn2N([C@H](c2cc(F)c(F)c(F)c2)c2cccs2)[C@@H]2COCCN12 | 0.0219
O=C1c2c(O)c(=O)ccn2N([C@@H](c2cc(F)c(F)c(F)c2)c2cccs2)[C@@H]2COCCN12 | 0.00543

Lab note: next compound to report on.
Which EC50 is listed for O=C1c2c(O)c(=O)ccn2N([C@H](c2ccc(F)c(F)c2)c2cc3ccccc3s2)[C@@H]2COCCN12 ? 0.0203

###

# Assay Overview: Cytotoxicity against dog MDCK cells assessed as cell viability measured after 48 hrs by CCK-8 assay
# Type: toxicity, cell-based, Canis lupus familiaris
Provide the reported CC50 at 48 h of each item.
Give bare numbers, in µM.

Sample records with CC50 at 48 h:
O=C1c2c(O)c(=O)ccn2N([C@H](c2ccc(F)c(F)c2)c2ccc(Br)s2)[C@@H]2COCCN12 | 17.3
O=C1c2c(O)c(=O)ccn2N([C@@H](c2ccc(F)cc2)c2cccs2)[C@@H]2COCCN12 | 37.6

Please supply CC50 at 48 h for each of the following items, keeping them in order.
1. O=C1c2c(O)c(=O)ccn2N([C@@H](c2ccc(Cl)c(Cl)c2)c2cccs2)[C@@H]2COCCN12
2. O=C1c2c(O)c(=O)ccn2N([C@H](c2ccc(F)c(F)c2)c2ccc(Cl)s2)[C@@H]2COCCN12
3. O=C1c2c(O)c(=O)ccn2N([C@H](c2ccc(F)c(F)c2)c2ccc(-c3ccccc3)s2)[C@@H]2COCCN12
4. O=C1c2c(O)c(=O)ccn2N([C@H](c2ccc(Br)c(Br)c2)c2cccs2)[C@@H]2COCCN12

[32.6, 24.1, 48.5, 24.9]
